# merged literature set: IC50 with IRAK1 (Homo sapiens)
# Sequence (P51617 whole entry): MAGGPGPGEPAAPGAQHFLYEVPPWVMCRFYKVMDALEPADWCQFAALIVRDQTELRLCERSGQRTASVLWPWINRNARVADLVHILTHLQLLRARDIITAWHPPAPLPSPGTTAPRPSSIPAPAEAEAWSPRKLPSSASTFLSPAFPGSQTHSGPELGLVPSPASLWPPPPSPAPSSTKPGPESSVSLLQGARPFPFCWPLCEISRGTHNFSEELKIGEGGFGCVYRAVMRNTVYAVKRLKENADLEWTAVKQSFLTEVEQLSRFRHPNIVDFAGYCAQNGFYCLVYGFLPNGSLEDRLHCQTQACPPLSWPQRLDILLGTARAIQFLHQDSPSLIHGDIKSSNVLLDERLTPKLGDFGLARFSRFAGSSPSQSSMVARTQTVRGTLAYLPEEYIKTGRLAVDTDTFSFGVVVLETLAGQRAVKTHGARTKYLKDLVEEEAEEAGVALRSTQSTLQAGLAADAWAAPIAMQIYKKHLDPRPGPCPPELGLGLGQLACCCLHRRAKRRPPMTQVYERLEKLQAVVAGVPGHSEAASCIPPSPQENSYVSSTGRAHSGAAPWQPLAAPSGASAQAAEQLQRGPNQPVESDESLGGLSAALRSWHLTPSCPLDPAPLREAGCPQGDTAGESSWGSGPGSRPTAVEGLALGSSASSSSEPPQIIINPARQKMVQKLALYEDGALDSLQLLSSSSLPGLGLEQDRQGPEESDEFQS

Data request: Report IC50 for Cn1cc(-c2cccc(-c3ncc(-c4cnn(C)c4)c(N[C@H]4CCC[C@@H]4O)n3)c2)cn1 (racemic) please.
Data returned: 100 to 1000 nM

Data request: Report IC50 for Cn1cc(-c2cccc(-c3ncc(-c4cnn(C)c4)c(NC4CC5(CCN(S(C)(=O)=O)C5)C4)n3)c2)cn1 (centres unmarked) please.
Data returned: 100 to 1000 nM

Data request: Report IC50 for c1cc(NC2CC3(CCNC3)C2)nc(-c2cnc3ccc(-c4cnn(C5CNC5)c4)nn23)c1 (centres unmarked) please.
Data returned: > 10000 nM

Data request: Report IC50 for CCn1cc(-c2cnc(N)c(-c3nc4ccc(OC)cc4[nH]3)c2)cn1 please.
Data returned: 100 to 10000 nM

Data request: Report IC50 for O=C1Nc2nc3ccccc3n2C/C=C\COc2ccc(=O)n(n2)Cc2cccc1c2 please.
Data returned: < 100 nM

Data request: Report IC50 for Cn1cc(-c2cccc(-c3ncc(-c4cnn(C)c4)c(NCC4CCOCC4)n3)c2)cn1 please.
Data returned: 100 to 1000 nM

Data request: Report IC50 for CC(C)n1cc(-c2ccc3ncc(-c4cccc(NC5CC6(CCNC6)C5)n4)n3n2)cn1 (centres unmarked) please.
Data returned: 2330 nM

Data request: Report IC50 for Cn1cc(-c2cccc(-c3ncc(-c4cnn(C)c4)c(N[C@H]4CC[C@H](N)C4)n3)c2)cn1 please.
Data returned: 1000 to 5000 nM

Data request: Report IC50 for Cn1cc(-c2cccc(-c3ncc(-c4cnn(C)c4)c(N[C@H]4CC[C@@H](N)CC4)n3)c2)cn1 please.
Data returned: 100 to 1000 nM

Data request: Report IC50 for CC(=O)NC1(CNc2nc(-c3cccc(-c4cnn(C)c4)c3)ncc2-c2cnn(C)c2)CCCCC1 please.
Data returned: 1000 to 5000 nM

Data request: Report IC50 for Cn1cc(-c2cccc(-c3ncc(-c4cnn(C)c4)c(NC[C@H]4CC[C@H](O)CC4)n3)c2)cn1 please.
Data returned: 100 to 1000 nM
